The reported measurements were obtained from ChEMBL document CHEMBL3352684.

- procedure_details: Clearance in rat at 2 mg/kg, iv
- Format: ADME, organism-based
- Parameters: dose 2 mg/kg, route intravenous
- study_conditions: in vivo
measurement_name: clearance (mL/min/kg)

{"columns": ["mol", "measurement_name", "recorded_value"],
 "data": [
  ["COc1ccc(CNC(=O)c2cc(-c3cncc(C)c3)ncc2-c2nccs2)nc1OC", "clearance", 40.7]
]}

###

pKi: −log10 of the molar value.
UniProt:O43614: reported pKi for various compounds.
measurement_name: pKi

{"columns": ["mol", "recorded_value"],
 "data": [
  ["COc1ccc(CNC(=O)c2nc(-c3cncc(C)c3)ccc2-c2ccccc2)nc1OC", 7.37],
  ["COc1ccc(CNC(=O)c2cc(-c3cncc(C)c3)ncc2N2CCC2)nc1OC", 8.00],
  ["COc1ccc(CNC(=O)c2cc(-c3cncc(C)c3)ncc2-c2ccccc2)nc1OC", 9.30],
  ["COc1ccc(CNC(=O)c2cc(-c3cncc(C)c3)cnc2-c2ccccc2)nc1OC", 9.52]
]}

###

- target_entity: Orexin/Hypocretin receptor type 1 (Homo sapiens, UniProt O43613, I408V)
- Sequence (O43613 whole entry I408V): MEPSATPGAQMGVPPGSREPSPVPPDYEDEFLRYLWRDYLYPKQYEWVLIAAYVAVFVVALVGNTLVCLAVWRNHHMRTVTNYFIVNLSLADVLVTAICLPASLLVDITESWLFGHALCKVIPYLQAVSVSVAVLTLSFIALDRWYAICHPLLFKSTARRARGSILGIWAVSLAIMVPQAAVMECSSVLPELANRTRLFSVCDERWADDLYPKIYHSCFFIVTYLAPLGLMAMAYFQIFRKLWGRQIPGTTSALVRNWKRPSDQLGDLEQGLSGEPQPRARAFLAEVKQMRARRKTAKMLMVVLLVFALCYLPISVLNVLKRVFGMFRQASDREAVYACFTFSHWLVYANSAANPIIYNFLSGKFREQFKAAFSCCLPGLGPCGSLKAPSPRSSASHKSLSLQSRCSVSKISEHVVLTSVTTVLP
- procedure_details: Displacement of N-cyclobutyl-5-methyl-N-(2-([3H]-1-methyl-1H-benzo[d]imidazol-2-ylthio)ethyl)-2-(2H-1,2,3-triazol-2-yl)benzamide from human OX1R I408V mutant expressed in CHO cells by topcount analysis
pKi: −log10 of the molar value.
Returns one of MET or NOT MET; MET when pKi is >= 5.

{"columns": ["mol", "cat"],
 "data": [
  ["COc1ccc(CNC(=O)c2cc(-c3cncc(C)c3)ncc2N2CCC2)nc1OC", "NOT MET"],
  ["COc1ccc(CNC(=O)c2cc(-c3cncc(C)c3)ncc2N2CCCC2)nc1OC", "NOT MET"],
  ["COc1ccc(CNC(=O)c2cc(-c3cncc(C)c3)cnc2-c2ccccc2)nc1OC", "MET"],
  ["COc1ccc(CNC(=O)c2cc(-c3cncc(C)c3)ccc2-c2ccccc2)nc1OC", "MET"],
  ["COc1ccc(CNC(=O)c2cc(-c3cncc(C)c3)ncc2-c2cncc(F)c2)nc1OC", "NOT MET"],
  ["COc1ccc(CNC(=O)c2cc(-c3cncc(C)c3)ncc2-c2ccnnc2)nc1OC", "NOT MET"],
  ["COc1ccc(CNC(=O)c2cc(-c3cncc(C)c3)ncc2N2CCOCC2)nc1OC", "MET"]
]}

###

- procedure_details: Tmax in dog at 3 mg/kg, po
- Type: ADME, organism-based, Canis lupus familiaris
- Parameters: dose 3 mg/kg, route oral
- study_conditions: in vivo

{"columns": ["mol", "Tmax (h)"],
 "data": [
  ["COc1ccc(CNC(=O)c2cc(-c3cncc(C)c3)ncc2-c2nccs2)nc1OC", 1]
]}

###

- procedure_details: Solubility of the compound in buffer at pH 2
- Assay type: physicochemical

{"columns": ["mol", "solubility"],
 "data": [
  ["COc1ccc(CNC(=O)c2cc(-c3cncc(Cl)c3)cnc2-c2ccccc2)nc1OC", "16 µM"],
  ["COc1ccc(CNC(=O)c2cc(-c3cncc(C)c3)cnc2-c2ccccc2)nc1OC", "180 µM"]
]}

###

- target_entity: Orexin/Hypocretin receptor type 1 (Homo sapiens, UniProt O43613, I408V)
- procedure_details: Displacement of N-cyclobutyl-5-methyl-N-(2-([3H]-1-methyl-1H-benzo[d]imidazol-2-ylthio)ethyl)-2-(2H-1,2,3-triazol-2-yl)benzamide from human OX1R I408V mutant expressed in CHO cells by topcount analysis
pKi: −log10 of the molar value.
Classify as follows. Reported pKi greater than or equal to 5: y. Reported pKi below: n.

{"columns": ["mol", "cat"],
 "data": [
  ["COc1ccc(CNC(=O)c2nc(-c3cncc(C)c3)ccc2-c2ccccc2)nc1OC", "y"],
  ["COc1ccc(CNC(=O)c2nc(-c3cncc(C)c3)ncc2-c2ccccc2)nc1OC", "n"],
  ["COc1ccc(CNC(=O)c2cc(-c3cncc(C)c3)nc3onc(-c4ccccc4)c23)nc1OC", "y"],
  ["COc1ccc(CNC(=O)c2cc(-c3cncc(C)c3)nnc2-c2ccccc2)nc1OC", "n"],
  ["COc1ccc(CNC(=O)c2cc(-c3cncc(C)c3)ncc2-c2cnn(C)c2)nc1OC", "y"],
  ["COc1ccc(CNC(=O)c2cc(-c3cncc(C)c3)ncc2-c2cccc(F)c2)nc1OC", "y"],
  ["COc1ccc(CNC(=O)c2cc(-c3cncc(C)c3)ncc2-c2ccccc2)nc1OC", "y"],
  ["COc1ccc(CNC(=O)c2cc(-c3cncc(C)c3)ncc2-c2cnccn2)nc1OC", "n"]
]}

###

This section presents compounds with their documented IC50 values.
- target_entity: Orexin receptor type 2 (Homo sapiens, UniProt O43614)
- Sequence (O43614 whole entry): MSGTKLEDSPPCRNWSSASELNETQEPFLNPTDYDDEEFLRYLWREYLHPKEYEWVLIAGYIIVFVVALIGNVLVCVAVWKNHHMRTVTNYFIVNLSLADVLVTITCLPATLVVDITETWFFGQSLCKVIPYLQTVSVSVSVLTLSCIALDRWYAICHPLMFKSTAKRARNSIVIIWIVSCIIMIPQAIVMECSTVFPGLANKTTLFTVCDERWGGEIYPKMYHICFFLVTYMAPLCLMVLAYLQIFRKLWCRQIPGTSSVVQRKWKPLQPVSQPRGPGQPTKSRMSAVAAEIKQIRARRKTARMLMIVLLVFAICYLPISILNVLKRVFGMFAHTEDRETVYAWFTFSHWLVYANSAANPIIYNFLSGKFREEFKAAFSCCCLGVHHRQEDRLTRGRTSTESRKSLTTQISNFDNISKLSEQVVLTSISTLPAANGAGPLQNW
- procedure_details: Antagonist activity at human OX2R expressed in CHO cells assessed as inhibition of Ala-6,12-orexinA-induced effect after 5 mins by FLIPR assay
measurement_name: IC50 (µM)

{"columns": ["mol", "recorded_value"],
 "data": [
  ["COc1ccc(CNC(=O)c2cc(-c3cncc(C)c3)ncc2-c2nccs2)nc1OC", 0.016],
  ["COc1ccc(CNC(=O)c2nc(-c3cncc(C)c3)ncc2-c2ccccc2)nc1OC", 0.12],
  ["COc1ccc(CNC(=O)c2cc(-c3cncc(C)c3)ncc2-c2ccccn2)nc1OC", 0.036],
  ["COc1ccc(CNC(=O)c2cc(-c3cncc(C)c3)ncc2-c2ccnnc2)nc1OC", 1.45],
  ["COc1ccc(CNC(=O)c2cc(-c3cncc(C)c3)ccc2-c2ccccc2)nc1OC", 0.014],
  ["COc1ccc(CNC(=O)c2nc(-c3cncc(C)c3)cnc2-c2ccccc2)nc1OC", 0.031],
  ["COc1ccc(CNC(=O)c2cc(-c3cncc(C)c3)ncc2-c2ccccc2)nc1OC", 0.021],
  ["COc1ccc(CNC(=O)c2cc(-c3cncc(C)c3)nnc2-c2ccccc2)nc1OC", 0.17],
  ["COc1ccc(CNC(=O)c2cc(-c3cncc(C)c3)ncc2N2CCC2)nc1OC", 0.083],
  ["COc1ccc(CNC(=O)c2cc(-c3cncc(C)c3)ncc2-c2cnn(C)c2)nc1OC", 0.167]
]}

###

pKi values, listed per item
- target_entity: Cytochrome P450 3A4 (Homo sapiens)
- Sequence (P08684 whole entry): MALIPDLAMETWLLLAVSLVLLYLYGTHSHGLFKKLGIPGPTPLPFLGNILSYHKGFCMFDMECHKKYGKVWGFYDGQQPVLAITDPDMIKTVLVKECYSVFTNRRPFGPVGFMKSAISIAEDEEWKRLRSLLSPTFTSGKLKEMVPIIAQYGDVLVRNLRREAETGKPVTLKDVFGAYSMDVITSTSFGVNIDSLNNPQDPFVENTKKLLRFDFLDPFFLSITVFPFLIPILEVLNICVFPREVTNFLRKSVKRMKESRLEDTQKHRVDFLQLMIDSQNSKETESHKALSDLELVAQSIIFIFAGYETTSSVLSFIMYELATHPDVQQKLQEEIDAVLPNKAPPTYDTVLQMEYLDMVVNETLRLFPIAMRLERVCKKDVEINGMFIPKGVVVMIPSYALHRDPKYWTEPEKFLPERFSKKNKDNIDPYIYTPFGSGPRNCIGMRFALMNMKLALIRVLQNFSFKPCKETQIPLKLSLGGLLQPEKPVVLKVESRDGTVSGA
- procedure_details: Time dependent inhibition of CYP3A4 (unknown origin)
pKi: −log10 of the molar value.

{"columns": ["molecule", "pKi"],
 "data": [
  ["COc1ccc(CNC(=O)c2cc(-c3cncc(Cl)c3)cnc2-c2ccccn2)nc1OC [MK-1064]", 5.02],
  ["COc1ccc(CNC(=O)c2cc(-c3cncc(C)c3)ncc2-c2ccccc2)nc1OC", 5.25]
]}

###

- procedure_details: Cmax in mouse at 100 mg/kg, po
- Format: ADME, organism-based
- Design: dose 100 mg/kg, route oral
- study_conditions: in vivo

{"columns": ["mol", "Cmax (µM)"],
 "data": [
  ["COc1ccc(CNC(=O)c2cc(-c3cncc(C)c3)ncc2-c2nccs2)nc1OC", 55.3]
]}

###

In this section we review reported Ratio IC50 values for a set of compounds.
- Tested on: CHO
- procedure_details: Selectivity ratio of IC50 for human OX1R Ile408Val mutant expressed in CHO cells to IC50 for human OX2R expressed in CHO cells
- Format: cell-based

{"columns": ["mol", "Ratio IC50"],
 "data": [
  ["COc1ccc(CNC(=O)c2cc(-c3cncc(C)c3)ncc2-c2ccnnc2)nc1OC", "> 10"],
  ["COc1ccc(CNC(=O)c2cc(-c3cncc(C)c3)ccc2-c2ccccc2)nc1OC", 110],
  ["COc1ccc(CNC(=O)c2cc(-c3cncc(C)c3)ncc2-c2ccccc2F)nc1OC", 120],
  ["COc1ccc(CNC(=O)c2cc(-c3cncc(C)c3)ncc2-c2ccccc2)nc1OC", 133],
  ["COc1ccc(CNC(=O)c2cc(-c3cncc(C)c3)nc3onc(-c4ccccc4)c23)nc1OC", "> 24"],
  ["COc1ccc(CNC(=O)c2nc(-c3cncc(C)c3)ncc2-c2ccccc2)nc1OC", "> 83"],
  ["COc1ccc(CNC(=O)c2nc(-c3cncc(C)c3)cnc2-c2ccccc2)nc1OC", "> 645"],
  ["COc1ccc(CNC(=O)c2sc(-c3cncc(C)c3)nc2-c2cccc(F)c2)nc1OC", "> 9"]
]}

###

- procedure_details: AUC (0 to infinity) in dog at 3 mg/kg, po
- Assay type: ADME, organism-based, Canis lupus familiaris
- Design: time infinity, dose 3 mg/kg, route oral
- study_conditions: plasma

{"columns": ["mol", "AUC(0-inf) / µM·h"],
 "data": [
  ["COc1ccc(CNC(=O)c2cc(-c3cncc(C)c3)ncc2-c2nccs2)nc1OC", 7.5]
]}

###

- procedure_details: Apparent permeability of the compound
- Type: physicochemical
- study_conditions: not told

{"columns": ["mol", "Papp"],
 "data": [
  ["COc1ccc(CNC(=O)c2cc(-c3cncc(C)c3)ncc2-c2nccs2)nc1OC", "33 ×10⁻⁶ cm/s"]
]}
